system: Escherichia coli K-12 LA 290 R 55; assay: Minimal inhibitory concentration, agar dilution streak method; format: cell-based; details: 18 h, read-out: minimum inhibitory concentrations
Just a reminder that ties go to Not met: only MIC strictly below 2 µg/mL counts as Met.

Bench note: check whether NCC[C@H](O)C(=O)N[C@@H]1C[C@H](N)[C@@H](O[C@H]2O[C@H](CN)[C@@H](O)C[C@H]2N)[C@H](O)[C@H]1O[C@H]1O[C@H](CO)[C@@H](O)[C@H](N)[C@H]1O [AHB-deoxykanamycin B] shows MIC below 2 µg/mL
Met

Record NC[C@H]1O[C@H](O[C@H]2[C@H](O)[C@@H](O[C@H]3O[C@H](CO)[C@@H](O)[C@H](N)[C@H]3O)[C@H](N)C[C@@H]2N)[C@H](N)C[C@@H]1O [3'-deoxykanamycin B] : is its MIC strictly below 2 µg/mL?
Not met

In plain terms, does NC[C@@H]1CC[C@@H](N)[C@@H](O[C@H]2[C@H](O)[C@@H](O[C@H]3O[C@H](CO)[C@@H](O)[C@H](N)[C@H]3O)[C@H](N)C[C@@H]2N)O1 [DKB, 3',4'-dideoxykanamycin B] come in under 2 µg/mL for MIC?
Not met

Just wondering, is MIC of CNC[C@H]1O[C@H](O[C@H]2[C@H](O)[C@@H](O[C@H]3O[C@H](CO)[C@@H](O)[C@H](N)[C@H]3O)[C@H](N)C[C@@H]2N)[C@H](N)C[C@@H]1O [3'-deoxy-6'-N-methylkanamycin B] below 2 µg/mL?
Not met

Bench note: check whether NC[C@H]1O[C@H](O[C@H]2[C@H](O)[C@@H](O[C@H]3O[C@H](CO)[C@@H](O)[C@H](N)[C@H]3O)[C@H](N)C[C@@H]2N)[C@H](O)[C@@H](O)[C@@H]1O [Kanamycin, kanamycin] shows MIC below 2 µg/mL
Not met

# TODO verify MIC < 2 µg/mL strictly for this compound: NC[C@H]1O[C@H](O[C@H]2[C@H](O)[C@@H](O)[C@H](N)C[C@@H]2N)[C@H](N)C[C@@H]1O [3'-deoxyneamine]
Not met

Is the reported MIC for NC[C@H]1O[C@H](O[C@H]2[C@H](O[C@@H]3O[C@H](CO)[C@@H](O)[C@H]3O)[C@@H](O)[C@H](N)C[C@@H]2N)[C@H](N)C[C@@H]1O [3'-deoxyribostamycin] strictly below 2 µg/mL?
Not met

Determine whether this compound shows MIC lower than 2 µg/mL (ties excluded): NCC[C@H](O)C(=O)N[C@@H]1C[C@H](N)[C@@H](O[C@H]2O[C@H](CN)CC[C@H]2N)[C@H](O)[C@H]1O[C@H]1O[C@H](CO)[C@@H](O)[C@H](N)[C@H]1O [AHB-dideoxykanamycin B]
Met

MIC under 2 µg/mL? Item: CNC[C@H]1O[C@H](O[C@H]2[C@H](O)[C@@H](O[C@H]3O[C@H](CO)[C@@H](O)[C@H](N)[C@H]3O)[C@H](NC(=O)[C@@H](O)CCN)C[C@@H]2N)[C@H](N)C[C@@H]1O [AHB-methyldeoxykanamycin B]
Met

Is it true that MIC reported for NCC[C@H](O)C(=O)N[C@@H]1C[C@H](N)[C@@H](O[C@H]2O[C@H](CN)[C@@H](O)C[C@H]2N)[C@H](O[C@@H]2O[C@H](CO)[C@@H](O)[C@H]2O)[C@H]1O [AHB-deoxyribostamycin] is less than 2 µg/mL?
Met

I wonder whether NCC[C@H](O)C(=O)N[C@@H]1C[C@H](N)[C@@H](O[C@H]2O[C@H](CN)[C@@H](O)C[C@H]2N)[C@H](O)[C@H]1O [AHB-deoxyneamine] has MIC below 2 µg/mL. Can you tell?
Not met

* * *

tested on: Escherichia coli K-12 W 677; test: Minimal inhibitory concentration, agar dilution streak method; type: cell-based; details: K12W677, nutrient agar, 37° C, 18 hours, read-out: minimum inhibitory concentrations
measure_name: MIC (µg/mL)
Give just the number in µg/mL; leave the unit off.

# get_value(readout='MIC', item= NC[C@@H]1CC[C@@H](N)[C@@H](O[C@H]2[C@H](O)[C@@H](O[C@H]3O[C@H](CO)[C@@H](O)[C@H](N)[C@H]3O)[C@H](N)C[C@@H]2N)O1 )
1.56

Which MIC value is on record for NCC[C@H](O)C(=O)N[C@@H]1C[C@H](N)[C@@H](O[C@H]2O[C@H](CN)[C@@H](O)C[C@H]2N)[C@H](O)[C@H]1O ?
6.25

Name the reported MIC value associated with the molecule NCC[C@H](O)C(=O)N[C@@H]1C[C@H](N)[C@@H](O[C@H]2O[C@H](CN)[C@@H](O)C[C@H]2N)[C@H](O[C@@H]2O[C@H](CO)[C@@H](O)[C@H]2O)[C@H]1O
0.78

Which measured MIC value corresponds to NC[C@H]1O[C@H](O[C@H]2[C@H](O)[C@@H](O[C@H]3O[C@H](CO)[C@@H](O)[C@H](N)[C@H]3O)[C@H](N)C[C@@H]2N)[C@H](O)[C@@H](O)[C@@H]1O ?
1.56

Looking for the measured MIC of NCC[C@H](O)C(=O)N[C@@H]1C[C@H](N)[C@@H](O[C@H]2O[C@H](CN)[C@@H](O)C[C@H]2N)[C@H](O)[C@H]1O[C@H]1O[C@H](CO)[C@@H](O)[C@H](N)[C@H]1O , can you help?
1.56

GET /values?readout=MIC&item= NCC[C@H](O)C(=O)N[C@@H]1C[C@H](N)[C@@H](O[C@H]2O[C@H](CN)CC[C@H]2N)[C@H](O)[C@H]1O[C@H]1O[C@H](CO)[C@@H](O)[C@H](N)[C@H]1O
0.39

So what does the record say about MIC for CNC[C@H]1O[C@H](O[C@H]2[C@H](O)[C@@H](O[C@H]3O[C@H](CO)[C@@H](O)[C@H](N)[C@H]3O)[C@H](NC(=O)[C@@H](O)CCN)C[C@@H]2N)[C@H](N)C[C@@H]1O ?
3.12

* * *

tested on: Sarcina lutea PCI 1001; assay: Minimal inhibitory concentration, agar dilution streak method; type: cell-based; conditions: Micrococcus luteus, PCI1001; nutrient agar, 37° C, 18 hours; read-out: Minimal inhibitory concentration
Provide the recorded MIC for the entries that follow.
Write the answer as a number in µg/mL, unit excluded.

Query: MIC; subject: NCC[C@H](O)C(=O)N[C@@H]1C[C@H](N)[C@@H](O[C@H]2O[C@H](CN)CC[C@H]2N)[C@H](O[C@@H]2O[C@H](CO)[C@@H](O)[C@H]2O)[C@H]1O
25

Which MIC reading was recorded for the molecule NC[C@H]1O[C@H](O[C@H]2[C@H](O[C@@H]3O[C@H](CO)[C@@H](O)[C@H]3O)[C@@H](O)[C@H](N)C[C@@H]2N)[C@H](N)[C@@H](O)[C@@H]1O ?
100

So what does the record say about MIC for NCC[C@H](O)C(=O)N[C@@H]1C[C@H](N)[C@@H](O[C@H]2O[C@H](CN)CC[C@H]2N)[C@H](O)[C@H]1O ?
25

Bench note: what MIC did NC[C@@H]1CC[C@@H](N)[C@@H](O[C@H]2[C@H](O)[C@@H](O)[C@H](N)C[C@@H]2N)O1 show?
50

Fill in the blank: the reported MIC of NCC[C@H](O)C(=O)N[C@@H]1C[C@H](N)[C@@H](O[C@H]2O[C@H](CN)[C@@H](O)[C@H](O)[C@H]2N)[C@H](O[C@@H]2O[C@H](CO)[C@@H](O)[C@H]2O)[C@H]1O is ____.
50

* * *

system: Escherichia coli K-12 LA 290 R 56; assay: Minimal inhibitory concentration, agar dilution streak method; type: cell-based; conditions: 18 h, read-out: Minimal inhibitory concentration
measure_name: MIC (µg/mL)
Quick note: give the figure in µg/mL, leave out the unit.

Please report the recorded MIC for NC[C@H]1O[C@H](O[C@H]2[C@H](O[C@@H]3O[C@H](CO)[C@@H](O)[C@H]3O)[C@@H](O)[C@H](N)C[C@@H]2N)[C@H](N)[C@@H](O)[C@@H]1O .
3.12

What does the record list as MIC for NC[C@H]1O[C@H](O[C@H]2[C@H](O)[C@@H](O[C@H]3O[C@H](CO)[C@@H](O)[C@H](N)[C@H]3O)[C@H](N)C[C@@H]2N)[C@H](N)[C@@H](O)[C@@H]1O ?
3.13

* * *

test system: Escherichia coli K-12; assay: Minimal inhibitory concentration, agar dilution streak method; type: cell-based; settings: K12, nutrient agar, 37° C, 18 hours, read-out: Minimal inhibitory concentration
measure_name: MIC (µg/mL)
Entry rule: numbers only, all in µg/mL.

Record request: MIC value, item NC[C@H]1O[C@H](O[C@H]2[C@H](O[C@@H]3O[C@H](CO)[C@@H](O)[C@H]3O)[C@@H](O)[C@H](N)C[C@@H]2N)[C@H](N)[C@@H](O)[C@@H]1O
3.12

Would you mind telling me what MIC value was observed for NC[C@@H]1CC[C@@H](N)[C@@H](O[C@H]2[C@H](O)[C@@H](O)[C@H](N)C[C@@H]2N)O1 ?
6.25

// query MIC value for entry NCC[C@H](O)C(=O)N[C@@H]1C[C@H](N)[C@@H](O[C@H]2O[C@H](CN)CC[C@H]2N)[C@H](O[C@@H]2O[C@H](CO)[C@@H](O)[C@H]2O)[C@H]1O
1.56

Can you share its MIC? I mean this molecule: NCC[C@H](O)C(=O)N[C@@H]1C[C@H](N)[C@@H](O[C@H]2O[C@H](CN)[C@@H](O)[C@H](O)[C@H]2N)[C@H](O)[C@H]1O[C@H]1O[C@H](CO)[C@@H](O)[C@H](N)[C@H]1O
0.78

Fill in: MIC of NC[C@H]1O[C@H](O[C@H]2[C@H](O)[C@@H](O)[C@H](N)C[C@@H]2N)[C@H](N)[C@@H](O)[C@@H]1O is ___
6.25
